Give viability at 28.5 h, 10 µM for every item shown.
# ASSAY SUMMARY: in vitro
# CONDITION DESCRIPTION: human, hela cells, % viability
Give bare numbers, in %.

Worked cases, answers included:
Clc1ccc(SCCN2CCNCC2)cc1 [CBK266077G]	94.2
COC(=O)c1sccc1NC(=O)c1ccccc1Cl [CBK066860]	65.5
COc1ccc(-c2c[nH]c([C@@H]3COCCN3Cc3ccc(C(=O)O)cc3)n2)cc1 [CBK289305]	84.1

Fill in viability at 28.5 h, 10 µM for each of the 2 molecules listed.
1. O=c1[nH]c(CSc2nnc(COc3ccccc3)o2)nc2ccccc12 [CBK269869]
2. O=C1NCCCC12CCN(Cc1ccc(F)cc1)CC2 [CBK285345]

84.9
83.1

I would be grateful if you could provide viability at 28.5 h, 10 µM for each of the following entries.
1. CC(C)NC(=O)N1Cc2nc[nH]c2C[C@H]1c1nc(-c2ccc(OC(F)(F)F)cc2)no1 [CBK288960]
2. O=C(c1cccc2ncccc12)N1CCC(c2ccncc2)CC1 [CBK283798]

[85.9, 84.2]
